# Tested on: MALME-3M melanoma
# ASSAY_TEXT: NCI tumour cell line growth inhibition, 48 h
Would you kindly list GI50 for each of these compounds?

*Q* Would you kindly share the measured GI50 for `COc1cc2c3c(n(CCCNCCCNCCCn4c5c(c6cc(OC)c(OC)cc6c4=O)C(=O)c4ccccc4-5)c(=O)c2cc1OC)-c1ccccc1C3=O` ?
*A* 25.7 µM

*Q* Would you kindly share the measured GI50 for COc1cc(C2c3cc4c(cc3[C@@H](NCCCN3CCCC3=O)C3COC(=O)[C@H]23)OCO4)cc(OC)c1O (stereo partly drawn) ?
*A* 11 µM

*Q* Would you kindly share the measured GI50 for NCCOc1ncccc1/C=C1\C2C=CC=CC2C2C=CC(F)=CC12 (stereo not drawn) ?
*A* 1.42 µM

*Q* Would you kindly share the measured GI50 for O=C(CC1(O)C(=O)N(Cc2ccccc2)c2ccc(Br)cc21)c1ccc(C(=O)NCC2CCC3(CC2)OOC2(CCCCC2)OO3)cc1 (stereo not drawn) ?
*A* 0.594 µM

*Q* Would you kindly share the measured GI50 for `O=C(Nc1ccc(-n2ccc3c(NC(=O)c4ccccc4)nccc32)cc1)c1cccc(C(F)(F)F)c1` ?
*A* 2.04 µM

*Q* Would you kindly share the measured GI50 for `COC(=O)N1c2ccc3c(nc(Cc4ccccc4)n3[C@H]3CCC[C@H](C(=O)O)C3)c2CC[C@@H]1C` ?
*A* 6.13 µM

*Q* Would you kindly share the measured GI50 for `O=C(O)[C@@H]1CCCN1Cc1cc2cc3c(cc2c2cc(OCc4ccccc4)ccc12)OCO3` ?
*A* 25.8 µM

*Q* Would you kindly share the measured GI50 for `O=[N+]([O-])[O][Sn]([O][Sn]([O][N+](=O)[O-])([c]1ccccc1)[c]1ccccc1)([c]1ccccc1)[c]1ccccc1` ?
*A* 79.3 µM

*Q* Would you kindly share the measured GI50 for O=C1C(C(Nc2ccccc2)c2ccccc2)=C([O-])c2ccccc21.O=C1C(C(Nc2ccccc2)c2ccccc2)=C([O-])c2ccccc21.[Co+2] (stereo not drawn) ?
*A* 5.48 µM

*Q* Would you kindly share the measured GI50 for `Cc1ccc2nc3ccccc3c(NCc3ccccc3)c2c1` ?
*A* 4.25 µM

*Q* Would you kindly share the measured GI50 for C=CCCCC(=O)CCC(=O)OCC1O[C@@H](O[C@@H]2C(O)[C@@H](OC(C)=O)C(C)O[C@H]2O[C@H](CC=C)CCCCC)C(O)[C@@H](OC(=O)/C(C)=C/C)[C@@H]1OC(=O)/C=C/c1ccccc1 (stereo partly drawn) ?
*A* 0.871 µM

*Q* Would you kindly share the measured GI50 for `CCN(CC)CCCNc1ccc2ncn3c4ccc(O)cc4c(=O)c1c23` ?
*A* 4.17 µM

*Q* Would you kindly share the measured GI50 for `O=C(N/N=C\c1cc(Cl)ccc1O)c1ccncc1` ?
*A* 14.6 µM

---

Would you kindly list GI50 for each of these molecules?
# Test system: OVCAR-5 ovarian
# ASSAY_TEXT: NCI tumour cell line growth inhibition, 48 h

*Q* Would you kindly share the measured GI50 for `Clc1ccc(CN2COc3c(ccc4cccnc34)C2)cc1Cl` ?
*A* 1.79 µM

*Q* Would you kindly share the measured GI50 for `Cc1ccc(S(=O)(=O)Oc2ccccc2-c2ccccc2)cc1` ?
*A* 8.26 µM

*Q* Would you kindly share the measured GI50 for `CCC(=O)Oc1cc(/C=C/C(=O)O[C@H]2C[C@H]3CN4CCc5c([nH]c6cc(OC)ccc56)[C@@H]4C[C@@H]3[C@@H](C(=O)OC)[C@@H]2OC)ccc1OC` ?
*A* 40.4 µM

*Q* Would you kindly share the measured GI50 for `O=C1N=C(c2c(-c3[nH]c(=O)c4ccc(Br)cc4c3O)c(O)c3ccccc3c2O)C(=O)c2cc(Br)ccc21` ?
*A* > 8.37 µM

---

# Tested on: UACC-62 melanoma
# ASSAY_TEXT: NCI tumour cell line growth inhibition, 48 h
Would you kindly list TGI for each of these compounds?

*Q* Would you kindly share the measured TGI for CCCCCCCCCC1CC(=O)Oc2cccc(O)c21 (stereo unspecified) ?
*A* 98.3 µM

*Q* Would you kindly share the measured TGI for `Cc1ccc2c3c4c(ccc13)C(C)(C)OC4=C(C(C)C)C2=O` ?
*A* > 100 µM

*Q* Would you kindly share the measured TGI for NCCOc1ncccc1/C=C1\C2C=CC=CC2C2C=CC(F)=CC12 (stereo unspecified) ?
*A* 2.88 µM

*Q* Would you kindly share the measured TGI for `CN(C)c1ccc(/C=C(/C(=O)O)c2csc(-c3nc(/C(=C\c4ccc(N(C)C)cc4)C(=O)O)cs3)n2)cc1` ?
*A* > 100 µM

*Q* Would you kindly share the measured TGI for `C[Si](C)(C)CC(N)=O` ?
*A* > 100 µM

*Q* Would you kindly share the measured TGI for CSC1C=C(C(C)C)CCC1(C)SC (stereo unspecified) ?
*A* 47.6 µM

*Q* Would you kindly share the measured TGI for CC1(SCC(N)C(=O)O)CC(=O)NC1=O (stereo unspecified) ?
*A* > 100 µM

*Q* Would you kindly share the measured TGI for O=P(Nc1ccccc1)(Oc1ccccc1)N1CCN(c2ccccc2)CC1 (stereo unspecified) ?
*A* 25.8 µM

*Q* Would you kindly share the measured TGI for COc1cc(/C=C2\CCC(C)C3=C(c4cc(OC)c(OC)c(OC)c4)C(C#N)=C(N)OC32)cc(OC)c1OC (stereo unspecified) ?
*A* 23.2 µM

*Q* Would you kindly share the measured TGI for `O=C1N=C(c2c(-c3[nH]c(=O)c4ccc(Br)cc4c3O)c(O)c3ccccc3c2O)C(=O)c2cc(Br)ccc21` ?
*A* > 16.7 µM

*Q* Would you kindly share the measured TGI for O=C1NC(=O)C2C1c1[nH]c3ccccc3c1C1CCCC12 (stereo unspecified) ?
*A* > 100 µM

*Q* Would you kindly share the measured TGI for COC1CC(OC)C2OC(c3ccccc3)OCC2O1 (stereo unspecified) ?
*A* > 100 µM

*Q* Would you kindly share the measured TGI for `Cc1ccc(N=Nc2c(O)c(S(=O)(=O)O)cc3cc(S(=O)(=O)O)ccc23)c(C)c1` ?
*A* > 100 µM

*Q* Would you kindly share the measured TGI for COc1ccc2oc(=O)cc(C3c4ccc([nH]4)C(c4cc(=O)oc5ccc(OC)cc45)c4ccc([nH]4)C(c4cc(=O)oc5ccc(OC)cc45)c4ccc([nH]4)C(c4cc(=O)oc5ccc(OC)cc45)c4ccc3[nH]4)c2c1 (stereo unspecified) ?
*A* 7.81 µM

*Q* Would you kindly share the measured TGI for `CN(C)c1ccc(Cc2cc(C(C)(C)C)cc(C(C)(C)C)c2O)cc1` ?
*A* 30.2 µM

*Q* Would you kindly share the measured TGI for `CO[C@@H]1[C@H](O)CC[C@]2(CO2)[C@H]1[C@@]1(C)O[C@@H]1CC=C(C)C` ?
*A* > 200 µM

*Q* Would you kindly share the measured TGI for `COc1ccccc1C1(c2c(OC(C)C)c(=O)c2=O)SCCCS1` ?
*A* > 100 µM

*Q* Would you kindly share the measured TGI for `CN(C)CC/C(=N\Nc1c(F)c(F)c(F)c(F)c1F)c1ccccc1` ?
*A* > 100 µM

*Q* Would you kindly share the measured TGI for CN1N=C(c2ccncc2)OC1c1ccc(Cl)cc1Cl (stereo unspecified) ?
*A* 76.5 µM

*Q* Would you kindly share the measured TGI for Cc1ccc(C2C(Cl)C(=O)N2n2cnc3ccccc3c2=O)cc1 (stereo unspecified) ?
*A* > 100 µM

*Q* Would you kindly share the measured TGI for `CCN(CC)C(=O)c1c(Cl)cc(N(CC)CC)oc1=O` ?
*A* > 100 µM

---

Would you kindly list TGI for each of these molecules?
# Tested on: UACC-62 melanoma
# ASSAY_TEXT: NCI tumour cell line growth inhibition, 48 h
A number alone suffices; assume µM.

*Q* Would you kindly share the measured TGI for Cc1cc(=O)[nH]c(NN2C(Cl)C(=O)C2c2ccc(O)cc2)n1 (configuration not stated) ?
*A* 18.7

*Q* Would you kindly share the measured TGI for c1ccc2c(c1)Sc1ccccc1N2CC1CN2CCC1CC2 (configuration not stated) ?
*A* 10.5

*Q* Would you kindly share the measured TGI for `COC(=O)c1ccc([C@H]2c3[nH]c4ccccc4c3C[C@H](C(=O)OC)N2C(=O)CCl)cc1` ?
*A* 2.21

*Q* Would you kindly share the measured TGI for `CCN1C(Cl)=NS(=O)(=O)c2ccccc21` ?
*A* 25.6

*Q* Would you kindly share the measured TGI for C=C1C2CC[C@@](C)(O)C2[C@H]2OC(=O)C(=C)[C@@H]2C[C@H]1O (some centres not stated) ?
*A* 30.1

*Q* Would you kindly share the measured TGI for `O=C1C=Cc2c(-c3ccccc3)oc3cccc1c23` ?
*A* 99.1

*Q* Would you kindly share the measured TGI for C=C1CC[C@@H]2C(C)(C)C(O)CCC2(C)C1COc1ccc2ccc(=O)oc2c1 (some centres not stated) ?
*A* 29.4

*Q* Would you kindly share the measured TGI for C/C1=C/C2OC(=O)C3(C)C2C(CC2(C)OC1=CC2=O)OC3(O)C(C)C (configuration not stated) ?
*A* 56.4

*Q* Would you kindly share the measured TGI for `N#CCCN1C/C(=C/c2ccccc2)C(=O)/C(=C/c2ccccc2)C1` ?
*A* 3.44

*Q* Would you kindly share the measured TGI for C=C1C[C@H](O)[C@H]2C(C[Se]c3ccccc3)C(=O)O[C@@H]2[C@H]2[C@H](C)C(O)C[C@@H]12 (some centres not stated) ?
*A* 64.1

*Q* Would you kindly share the measured TGI for `CCCCCCC/C(=N\N=C(N)N)c1ccc(O)cc1` ?
*A* 3.26
